Numbers sourced from paper PMC10539361.

test system: mfT1R2a K265A/mfT1R3 (Oryzias latipes, UniProt Q2MHK2+Q2MHK5, Q2MHK5:K265A)
Sequence (Q2MHK2 entry or part of it): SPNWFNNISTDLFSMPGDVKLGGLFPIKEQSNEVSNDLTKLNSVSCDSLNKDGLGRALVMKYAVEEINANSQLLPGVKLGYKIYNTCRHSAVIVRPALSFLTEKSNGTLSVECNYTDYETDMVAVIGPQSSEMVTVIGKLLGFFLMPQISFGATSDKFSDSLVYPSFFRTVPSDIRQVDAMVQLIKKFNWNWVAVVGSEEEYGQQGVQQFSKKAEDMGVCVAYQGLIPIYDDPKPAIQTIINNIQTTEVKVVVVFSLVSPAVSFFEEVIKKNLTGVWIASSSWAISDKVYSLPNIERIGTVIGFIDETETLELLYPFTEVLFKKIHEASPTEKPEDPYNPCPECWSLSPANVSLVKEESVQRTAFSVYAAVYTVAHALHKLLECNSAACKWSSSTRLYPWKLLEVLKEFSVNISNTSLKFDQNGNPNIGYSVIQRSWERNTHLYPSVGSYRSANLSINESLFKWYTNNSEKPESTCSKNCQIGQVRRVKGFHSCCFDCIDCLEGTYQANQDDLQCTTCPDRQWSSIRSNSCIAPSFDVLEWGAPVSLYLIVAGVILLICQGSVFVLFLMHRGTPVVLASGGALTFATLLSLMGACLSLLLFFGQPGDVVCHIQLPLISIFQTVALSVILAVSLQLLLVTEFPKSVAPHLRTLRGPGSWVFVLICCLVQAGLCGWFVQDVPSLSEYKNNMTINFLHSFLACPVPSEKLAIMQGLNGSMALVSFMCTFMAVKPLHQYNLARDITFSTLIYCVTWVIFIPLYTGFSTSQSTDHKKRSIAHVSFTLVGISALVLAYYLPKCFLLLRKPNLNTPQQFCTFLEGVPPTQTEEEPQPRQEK
Sequence (Q2MHK5 entry or part of it K265A): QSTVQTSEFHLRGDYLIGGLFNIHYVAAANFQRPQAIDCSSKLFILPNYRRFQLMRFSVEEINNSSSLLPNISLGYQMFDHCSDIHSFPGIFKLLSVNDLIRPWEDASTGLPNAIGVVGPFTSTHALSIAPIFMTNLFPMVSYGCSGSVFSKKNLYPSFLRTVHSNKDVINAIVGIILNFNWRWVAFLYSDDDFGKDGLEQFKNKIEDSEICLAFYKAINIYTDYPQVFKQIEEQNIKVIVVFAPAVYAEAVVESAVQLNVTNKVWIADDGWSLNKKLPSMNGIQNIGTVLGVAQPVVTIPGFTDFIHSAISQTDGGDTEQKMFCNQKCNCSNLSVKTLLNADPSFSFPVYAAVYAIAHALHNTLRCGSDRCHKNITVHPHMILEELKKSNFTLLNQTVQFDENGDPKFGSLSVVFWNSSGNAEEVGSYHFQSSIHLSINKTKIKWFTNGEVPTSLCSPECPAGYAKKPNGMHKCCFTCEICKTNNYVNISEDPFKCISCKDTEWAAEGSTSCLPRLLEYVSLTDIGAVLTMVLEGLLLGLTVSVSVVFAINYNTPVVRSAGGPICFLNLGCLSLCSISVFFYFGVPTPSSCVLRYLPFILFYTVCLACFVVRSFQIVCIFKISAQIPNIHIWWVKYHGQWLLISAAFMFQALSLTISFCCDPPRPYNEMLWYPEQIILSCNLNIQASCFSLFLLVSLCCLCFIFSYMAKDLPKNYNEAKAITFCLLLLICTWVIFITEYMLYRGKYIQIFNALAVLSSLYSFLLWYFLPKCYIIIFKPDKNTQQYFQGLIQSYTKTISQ
protocol details: cell-based
measurement context: EC50, [Cl-]o=10 mM; no unit printed with values, x-axis title L-Gln [M]
measured attribute: EC50 (M)
Express the result in M but write the number alone.

Kindly indicate its recorded EC50. Item: NC(=O)CC[C@H](N)C(=O)O [L-Gln, L-glutamine]
0.000283

---

test system: mfT1R2a/mfT1R3 T105E (Oryzias latipes, UniProt Q2MHK2+Q2MHK5, Q2MHK2:T105E)
Sequence (Q2MHK5 entry or part of it): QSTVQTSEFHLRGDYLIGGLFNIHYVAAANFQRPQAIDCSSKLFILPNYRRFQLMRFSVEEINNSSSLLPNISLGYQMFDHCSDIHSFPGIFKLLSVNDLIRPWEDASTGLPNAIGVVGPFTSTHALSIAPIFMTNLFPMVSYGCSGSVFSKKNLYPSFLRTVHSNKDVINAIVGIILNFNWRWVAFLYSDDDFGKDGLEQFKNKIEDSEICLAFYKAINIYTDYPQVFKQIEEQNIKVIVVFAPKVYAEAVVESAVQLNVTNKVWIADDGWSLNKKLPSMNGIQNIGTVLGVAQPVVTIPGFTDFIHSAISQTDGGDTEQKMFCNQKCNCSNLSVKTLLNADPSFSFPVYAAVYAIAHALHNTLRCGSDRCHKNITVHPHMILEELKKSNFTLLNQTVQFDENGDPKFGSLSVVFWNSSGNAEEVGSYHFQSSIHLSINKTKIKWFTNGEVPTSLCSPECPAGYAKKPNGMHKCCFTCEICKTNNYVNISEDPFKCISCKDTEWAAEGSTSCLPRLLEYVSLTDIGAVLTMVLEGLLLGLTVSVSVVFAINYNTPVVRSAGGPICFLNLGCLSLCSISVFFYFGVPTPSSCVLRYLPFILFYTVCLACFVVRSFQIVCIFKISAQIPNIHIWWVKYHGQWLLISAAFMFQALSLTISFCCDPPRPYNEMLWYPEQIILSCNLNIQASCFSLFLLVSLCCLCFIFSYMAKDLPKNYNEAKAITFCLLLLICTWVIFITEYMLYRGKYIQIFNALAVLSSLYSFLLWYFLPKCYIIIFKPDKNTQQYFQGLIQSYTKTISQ
Sequence (Q2MHK2 entry or part of it T105E): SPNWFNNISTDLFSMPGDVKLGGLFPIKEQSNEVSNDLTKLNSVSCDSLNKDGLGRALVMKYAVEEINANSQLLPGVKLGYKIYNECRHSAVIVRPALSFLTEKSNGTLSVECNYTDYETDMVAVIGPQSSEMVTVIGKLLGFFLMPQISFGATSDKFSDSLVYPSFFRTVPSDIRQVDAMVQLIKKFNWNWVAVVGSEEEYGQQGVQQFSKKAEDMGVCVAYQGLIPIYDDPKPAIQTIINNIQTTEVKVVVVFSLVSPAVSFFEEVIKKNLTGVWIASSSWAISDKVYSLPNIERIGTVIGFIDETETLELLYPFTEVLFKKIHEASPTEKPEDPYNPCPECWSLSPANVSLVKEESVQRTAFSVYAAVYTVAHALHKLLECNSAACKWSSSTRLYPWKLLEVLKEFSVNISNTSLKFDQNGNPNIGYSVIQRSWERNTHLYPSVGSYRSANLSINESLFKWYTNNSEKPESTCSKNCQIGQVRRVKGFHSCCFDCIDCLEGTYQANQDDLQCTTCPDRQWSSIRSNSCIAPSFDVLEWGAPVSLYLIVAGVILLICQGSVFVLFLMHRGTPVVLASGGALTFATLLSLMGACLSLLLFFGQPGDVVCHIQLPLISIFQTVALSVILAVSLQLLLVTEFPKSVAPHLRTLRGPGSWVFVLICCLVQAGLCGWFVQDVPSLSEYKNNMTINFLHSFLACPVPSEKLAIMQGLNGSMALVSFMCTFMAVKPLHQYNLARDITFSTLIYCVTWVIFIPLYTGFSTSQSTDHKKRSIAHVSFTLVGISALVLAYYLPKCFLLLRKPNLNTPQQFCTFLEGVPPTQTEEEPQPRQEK
protocol details: cell-based
measurement context: EC50, [Cl-]o=10 mM; unit inferred
measured attribute: pEC50
pEC50 here is simply -log10 of the concentration when that concentration is written in mol/L.

Using the record for `NC(=O)CC[C@H](N)C(=O)O` , state its measured pEC50.
3.06
